# System: PmTbr T-box DNA-binding domain (GST fusion);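 also: 200 nM protein in PBS on universal arrays averaged over duplicate arrays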
# Sequence: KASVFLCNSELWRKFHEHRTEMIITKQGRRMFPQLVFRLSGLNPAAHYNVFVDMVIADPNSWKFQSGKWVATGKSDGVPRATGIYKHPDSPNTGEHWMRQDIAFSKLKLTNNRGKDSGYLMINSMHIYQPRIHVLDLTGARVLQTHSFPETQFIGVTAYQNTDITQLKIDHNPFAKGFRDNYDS
# measurementNotes: PBM E-score of 8-mer (E-score (dimensionless, -0.5 to 0.5)); higher = stronger binding preference
# cond: the construct has about 5 more residues each side
Over roughly 33,000 sequences, “E-score (dimensionless, -0.5 to 0.5)” has its median near -0.049; the highest 2% begin near 0.37. The entries come from a sample that favours the highest values as a whole.
Listed here are sequences together with their documented PBM E-score of 8-mer.
endpoint: PBM E-score of 8-mer

INSERT INTO measurements (chain, assayvalue) VALUES
  ('GCCGTGCC', 0.0438),
  ('CGTGTCAA', 0.434),
  ('AATGTCAA', 0.0345),
  ('GTCGCGAC', 0.385),
  ('AGCCAGAG', -0.0902),
  ('ATCGCGAC', 0.26),
  ('AGAGCATC', -0.226),
  ('AAGCGCGG', 0.0485),
  ('GTTAGGCA', -0.0852),
  ('GGCGCGAA', 0.461),
  ('AGCGCGAG', 0.319),
  ('ACGTGACG', 0.346),
  ('GACGCGAA', 0.126),
  ('ATGGACTG', -0.165),
  ('ACTTCGAC', 0.14),
  ('CGATCTAG', 0.025),
  ('CTATGCAC', -0.129),
  ('CTCGAGGC', -0.039),
  ('GATAACAA', 0.212),
  ('CCTGTTGA', 0.091),
  ('ACACCCGA', 0.422),
  ('ACCCCGCC', 0.119),
  ('ACTACCTC', -0.248),
  ('CGCTTTGC', -0.129),
  ('CGCGCGAG', 0.27),
  ('GTGTGACA', 0.471),
  ('TCGAAAGA', -0.172),
  ('ATACCTAT', -0.0294),
  ('ATACCTAA', 0.0416),
  ('ACACCCGC', 0.376),
  ('GTTCGAAA', -0.132),
  ('AGTGCGGA', 0.265),
  ('CTCTAAGA', -0.271),
  ('AGGTGCGG', 0.434),
  ('CTTGCGAA', 0.328),
  ('ATGTGTCG', 0.402),
  ('ATCCCGCG', -0.042),
  ('CCCGACCA', -0.0729),
  ('CTGACCTA', -0.194),
  ('CGTGCGGA', 0.0633),
  ('GTGTCGCA', 0.415),
  ('CGGCTGAG', -0.1),
  ('CCACCCGC', 0.0903),
  ('AAGCGCGA', 0.375),
  ('GTCGCGAA', 0.33),
  ('CGTGTCCA', 0.00534),
  ('CGTGCGAG', 0.358),
  ('CTGTCGCA', 0.224),
  ('AGTCATAT', -0.234),
  ('GTTGCGAA', 0.389),
  ('CTGTGACA', 0.336),
  ('TGCCCACA', -0.0968);

---

# System: PmTbr T-box DNA-binding domain (GST fusion);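 also: 200 nM protein in PBS on universal arrays averaged over duplicate arrays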
# Sequence: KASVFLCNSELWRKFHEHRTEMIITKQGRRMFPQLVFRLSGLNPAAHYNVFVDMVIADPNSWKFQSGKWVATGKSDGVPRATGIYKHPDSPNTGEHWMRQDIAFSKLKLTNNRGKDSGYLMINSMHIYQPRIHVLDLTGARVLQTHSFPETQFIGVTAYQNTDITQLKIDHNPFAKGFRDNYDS
# measurementNotes: PBM E-score of 8-mer (E-score (dimensionless, -0.5 to 0.5)); higher = stronger binding preference
# cond: target sequence: T-box / the construct has about 5 more residues each side
The full ranking holds about 33,000 sequences; the median of “E-score (dimensionless, -0.5 to 0.5)” is about -0.049, and the highest 2% start at about 0.37. The sample holds the highest values, similar sequences and a random draw of the others, so the mix is not that of the screen.
Would you please tag the item true (1) when its PBM E-score of 8-mer is 0.2 or above, and false (0) when it is below?

INSERT INTO measurements (chain, classname) VALUES
  ('AAACCAAC', 'false (0)'),
  ('GAGTGCAA', 'false (0)'),
  ('ACAGCTCA', 'true (1)'),
  ('CTTGACAC', 'true (1)'),
  ('CCTTGGGC', 'false (0)'),
  ('CTAGCGTA', 'false (0)'),
  ('AGTTAACA', 'true (1)'),
  ('GAACCTAC', 'false (0)'),
  ('GGTGACAA', 'true (1)'),
  ('ACTGACAC', 'true (1)'),
  ('CTTCCCCC', 'false (0)'),
  ('AGGATCAT', 'false (0)'),
  ('CGATTCAC', 'false (0)'),
  ('ACTAGTCA', 'false (0)'),
  ('CGTTAGCA', 'true (1)'),
  ('CGTTAACA', 'true (1)'),
  ('ACAGTAAC', 'false (0)'),
  ('AGTGACTA', 'false (0)'),
  ('CGTGACAC', 'true (1)'),
  ('CCGCTATC', 'false (0)'),
  ('AGTGACCA', 'false (0)'),
  ('ATGGTTAC', 'false (0)'),
  ('CTATAGAA', 'false (0)'),
  ('GCTGACAC', 'true (1)'),
  ('GGGCCCAA', 'false (0)'),
  ('ACTGACAT', 'false (0)');

---

# Tested on: PmTbr T-box DNA-binding domain (GST fusion);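 also: 200 nM protein in PBS on universal arrays averaged over duplicate arrays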
# Sequence: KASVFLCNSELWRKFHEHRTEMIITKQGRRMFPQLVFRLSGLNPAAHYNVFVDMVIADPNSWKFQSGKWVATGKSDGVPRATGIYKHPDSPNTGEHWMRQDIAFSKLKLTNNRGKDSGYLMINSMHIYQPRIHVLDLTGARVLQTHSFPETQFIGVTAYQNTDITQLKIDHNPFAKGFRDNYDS
# measurementNotes: PBM E-score of 8-mer (E-score (dimensionless, -0.5 to 0.5)); Tbr is Tbrain of the sea star Patiria miniata (Pm) or the sea urchin Strongylocentrotus purpuratus (Sp); higher = stronger binding preference
# cond: target sequence: T-box / the construct has about 5 more residues each side
Whole data set: some 33,000 sequences, median “E-score (dimensionless, -0.5 to 0.5)” near -0.049, cut for the highest 2% near 0.37. The sample holds the highest values, similar sequences and a random draw of the others, so the mix is not that of the screen.
endpoint: PBM E-score of 8-mer

INSERT INTO measurements (chain, system, endpoint, assayvalue) VALUES
  ('GAGACCTA', 'PmTbr T-box DNA-binding domain (GST fusion)', 'PBM E-score of 8-mer', -0.16),
  ('CAAGAGTG', 'PmTbr T-box DNA-binding domain (GST fusion)', 'PBM E-score of 8-mer', 0.154),
  ('CACCTGAG', 'PmTbr T-box DNA-binding domain (GST fusion)', 'PBM E-score of 8-mer', 0.375),
  ('GGCGACAA', 'PmTbr T-box DNA-binding domain (GST fusion)', 'PBM E-score of 8-mer', 0.381),
  ('CTAGTAGA', 'PmTbr T-box DNA-binding domain (GST fusion)', 'PBM E-score of 8-mer', -0.0181),
  ('GATATCAC', 'PmTbr T-box DNA-binding domain (GST fusion)', 'PBM E-score of 8-mer', 0.331),
  ('CGAAGAGC', 'PmTbr T-box DNA-binding domain (GST fusion)', 'PBM E-score of 8-mer', -0.116),
  ('CCTAACAC', 'PmTbr T-box DNA-binding domain (GST fusion)', 'PBM E-score of 8-mer', 0.437),
  ('CGCGACAG', 'PmTbr T-box DNA-binding domain (GST fusion)', 'PBM E-score of 8-mer', 0.308),
  ('TAGGGCCA', 'PmTbr T-box DNA-binding domain (GST fusion)', 'PBM E-score of 8-mer', -0.155),
  ('AACCTGAC', 'PmTbr T-box DNA-binding domain (GST fusion)', 'PBM E-score of 8-mer', 0.111),
  ('CGCGACAC', 'PmTbr T-box DNA-binding domain (GST fusion)', 'PBM E-score of 8-mer', 0.375),
  ('CCCACCTA', 'PmTbr T-box DNA-binding domain (GST fusion)', 'PBM E-score of 8-mer', 0.184),
  ('AACCTGAG', 'PmTbr T-box DNA-binding domain (GST fusion)', 'PBM E-score of 8-mer', 0.0264),
  ('AGGCGACA', 'PmTbr T-box DNA-binding domain (GST fusion)', 'PBM E-score of 8-mer', 0.397),
  ('CACCTGTC', 'PmTbr T-box DNA-binding domain (GST fusion)', 'PBM E-score of 8-mer', 0.427),
  ('CGGTGGTA', 'PmTbr T-box DNA-binding domain (GST fusion)', 'PBM E-score of 8-mer', -0.00583),
  ('AACCTGTA', 'PmTbr T-box DNA-binding domain (GST fusion)', 'PBM E-score of 8-mer', -0.252),
  ('GCTAACCC', 'PmTbr T-box DNA-binding domain (GST fusion)', 'PBM E-score of 8-mer', 0.00156),
  ('AAAACCTA', 'PmTbr T-box DNA-binding domain (GST fusion)', 'PBM E-score of 8-mer', -0.209),
  ('CACACCTA', 'PmTbr T-box DNA-binding domain (GST fusion)', 'PBM E-score of 8-mer', 0.476),
  ('AACACCTA', 'PmTbr T-box DNA-binding domain (GST fusion)', 'PBM E-score of 8-mer', 0.48),
  ('CGGTAAAG', 'PmTbr T-box DNA-binding domain (GST fusion)', 'PBM E-score of 8-mer', -0.102),
  ('TAACACAA', 'PmTbr T-box DNA-binding domain (GST fusion)', 'PBM E-score of 8-mer', 0.313),
  ('CCTAACAG', 'PmTbr T-box DNA-binding domain (GST fusion)', 'PBM E-score of 8-mer', 0.128),
  ('AAATAGGA', 'PmTbr T-box DNA-binding domain (GST fusion)', 'PBM E-score of 8-mer', -0.294);
